assay: Inverse micelle (polymer 1) extraction of a myoglobin tryptic digest at pH 7.1, MALDI-MS; format: physicochemical; conditions: myoglobin tryptic digest 1 μM, polymer 1 in toluene, K = Iorg/Iaq, [M+H]+, 3 replicates
Ion abundance ratio (K ± sM) vs 30: at or above is y, below is n.

| Biopolymer Sequence | Assigned Class |
| --- | --- |
| GHHEAELKPLAQSHATK (listed as Equus caballus) [tryptic fragment of equine myoglobin] | y |
| ASEDLKKHGTVVLTALGGILK (listed as Equus caballus) [tryptic fragment of equine myoglobin] | y |
| YLEFISDAIIHVLHSK (listed as Equus caballus) [tryptic fragment of equine myoglobin] | n |
| VEADIAGHGQEVLIR (listed as Equus caballus) [tryptic fragment of equine myoglobin] | n |
| HGTVVLTALGGILKK (listed as Equus caballus) [tryptic fragment of equine myoglobin] | y |

Asked: State whether the measured Ion abundance ratio (K ± sM) reaches 30, counting equality as reaching it, for HPGDFGADAQGAMTK (listed as Equus caballus) [tryptic fragment of equine myoglobin]
Given back: n

Asked: State whether the measured Ion abundance ratio (K ± sM) reaches 30, counting equality as reaching it, for NDIAAKYKELGFQG (NDLAAKYKELGFQG; listed as Equus caballus) [tryptic fragment of equine myoglobin]
Given back: n

Asked: State whether the measured Ion abundance ratio (K ± sM) reaches 30, counting equality as reaching it, for ALELFRNDIAAK [tryptic fragment of equine myoglobin]
Given back: n

Asked: State whether the measured Ion abundance ratio (K ± sM) reaches 30, counting equality as reaching it, for GLSDGEWQQVLNVWGK (listed as Equus caballus) [tryptic fragment of equine myoglobin]
Given back: n

Asked: State whether the measured Ion abundance ratio (K ± sM) reaches 30, counting equality as reaching it, for KHGTVVLTALGGILK (listed as Equus caballus) [tryptic fragment of equine myoglobin]
Given back: y

Asked: State whether the measured Ion abundance ratio (K ± sM) reaches 30, counting equality as reaching it, for HGTVVLTALGGILK (listed as Equus caballus) [tryptic fragment of equine myoglobin]
Given back: y

Asked: State whether the measured Ion abundance ratio (K ± sM) reaches 30, counting equality as reaching it, for LFTGHPETLEKFDKFK (listed as Equus caballus) [tryptic fragment of equine myoglobin]
Given back: y

Asked: State whether the measured Ion abundance ratio (K ± sM) reaches 30, counting equality as reaching it, for YKELGFQG (listed as Equus caballus) [tryptic fragment of equine myoglobin]
Given back: n

Asked: State whether the measured Ion abundance ratio (K ± sM) reaches 30, counting equality as reaching it, for LFTGHPETLEK (listed as Equus caballus) [tryptic fragment of equine myoglobin]
Given back: n

Asked: State whether the measured Ion abundance ratio (K ± sM) reaches 30, counting equality as reaching it, for KKGHHEAELKPLAQSHATK (listed as Equus caballus) [tryptic fragment of equine myoglobin]
Given back: y

Asked: State whether the measured Ion abundance ratio (K ± sM) reaches 30, counting equality as reaching it, for KGHHEAELKPLAQSHATK (listed as Equus caballus) [tryptic fragment of equine myoglobin]
Given back: y
